# ASSAY_DETAILS: Caspase-3/7 induction in HepG2 cells by small molecules, qHTS assay (AID 1346978); note: nearly all actives have a fitted effect of over 15% in size
# TEST_CONTEXT: HepG2 caspase-3/7 activation, Caspase-Glo luminescence, 17 h; series mostly up to 92.4 µM
Inconclusive results are not listed. Calls of active or inactive are those of the source. Calls come from the whole dose curve; as a rule, active = well fitted activation curve with a large enough effect in the repeat runs; inconclusive = weak or mixed curves; inactive = flat fitted curve, though single readings scatter.
Possible outcomes: 1 = active, 0 = inactive

CSCCCN=C=S    0
O=c1ssc(Cl)c1Cl    0
O=[N+]([O-])O.O=[N+]([O-])O.[Cd]    0
CN(C)[C@@H]1C(=O)C(C(N)=O)=C(O)[C@@]2(O)C(=O)C3=C(O)c4c(O)ccc(Cl)c4[C@@](C)(O)[C@H]3C[C@@H]12    0
CCOC(=O)c1ccccc1S(=O)(=O)NC(=O)Nc1nc(Cl)cc(OC)n1    0
Cc1ccc(CCl)cc1    0
Nc1ccccc1C(=O)Oc1ccc2ccccc2c1    0
S=C=Nc1cccc2ccccc12    0
Clc1ccc(-c2ccccc2)cc1    0
Clc1ccc(CCC(Cn2ccnc2)Sc2c(Cl)cccc2Cl)cc1 (stereo not drawn)    0
O=C(O)c1cc[c]([Hg][Cl])cc1    0
BrC(Br)C(Br)(Br)Br    0
ClCc1ccc(Cl)cc1Cl    0
Nc1ccccc1C(=O)OC/C=C/c1ccccc1    0
FC(F)(F)c1cccc(C2=CCN(CCc3ccc4ccccc4c3)CC2)c1    0
CC(C)Oc1cccc(NC(=O)c2ccccc2C(F)(F)F)c1    0
CC[C@H]1C[C@@H]2C[C@H]3c4[nH]c5ccc(OC)cc5c4CCN(C2)[C@@H]13    0
O=CC(Br)(Br)Br    0
NNC(=O)c1ccccc1    0
O=[N+]([O-])c1ccc2ccc3cccc4ccc1c2c34    0
ClC1=C(Cl)C2(Cl)C3C(Cl)C=CC3C1(Cl)C2(Cl)Cl (stereo not drawn)    0
O=[N+]([O-])c1cc(C(F)(F)F)c(Cl)c([N+](=O)[O-])c1Cl    1
BrCC(Br)c1ccccc1 (stereo not drawn)    0
Cn1[nH]nnc1=S    0
CC(C)OC(=S)S    0
CC1(C)CC/C(=C/c2ccc(Cl)cc2)C1(O)Cn1cncn1 (stereo not drawn)    0
N#Cc1c(-c2ccc(Cl)cc2)[nH]c(C(F)(F)F)c1Br    0
CCOP(=S)(OCC)SCS(=O)(=O)C(C)(C)C    0

* * *

# ASSAY_DETAILS: qHTS assay to identify small molecule antagonists of the sonic hedgehog signaling (Shh) pathway (AID 1259369); note: nearly all actives have a fitted effect of over 45% in size; note: potency is the fitted concentration of half-maximal effect
# TEST_CONTEXT: NIH/3T3 Gli1-Luc reporter, Shh antagonist, luminescence 24 h; series mostly up to 92.4 µM
Results filed as inconclusive are left out. Activity calls are given as the source filed them. The call rests on the fitted dose curve.
OBSERVED_PROPERTY: Potency

FC(Cl)(Cl)Cl    inactive
BrC(Br)C(Br)(Br)Br    61.5 µM (active)
CC1(C)[C@H](C(=O)O[C@H](C#N)c2cccc(Oc3ccccc3)c2)[C@@H]1/C=C(\Cl)C(F)(F)F    inactive
O=[N+]([O-])O.O=[N+]([O-])O.[Cd]    1.72 µM (active)
C[C@@H]1O[C@@H](O[C@H]2C[C@@H](O)[C@]3(CO)[C@H]4[C@H](O)C[C@]5(C)[C@@H](C6=CC(=O)OC6)CC[C@]5(O)[C@@H]4CC[C@]3(O)C2)[C@H](O)[C@H](O)[C@H]1O    inactive
CCN    inactive
CC(C)C1CCC(Cc2ccc(Cl)cc2)C1(O)Cn1cncn1 (centres undefined)    17.1 µM (active)
O=[N+]([O-])c1c2ccccc2cc2ccccc12    67.8 µM (active)
COc1cccc(C(=O)CCN[C@@H](C)[C@H](O)c2ccccc2)c1    23.7 µM (active)
C=CC(=O)N(C)C    inactive
N#CCc1ccc(Cl)cc1    inactive
ClCc1ccccc1CCl    inactive
CCCCCCCCCC[N+](C)(C)CCCCCCCCCC    0.969 µM (active)
ClC1=C(Cl)C2(Cl)C3C(Cl)C(Cl)CC3C1(Cl)C2(Cl)Cl (centres undefined)    inactive
N#CCCC(Br)(C#N)CBr (centres undefined)    21.7 µM (active)
N#Cc1ccccc1N    inactive
S=C(SSC(=S)N1CCCCC1)N1CCCCC1    5.96 µM (active)
CCCCCCCCCCCCCCCCCCn1cc[n+](C)c1    0.0542 µM (active)
O=C(CCl)C(Cl)Cl    2.76 µM (active)
O=C(O)c1cc[c]([Hg][Cl])cc1    1.72 µM (active)
CC(C)CBr    inactive
CCCCCCCCCCBr    inactive
COc1ccc(OC)c(C=O)c1    inactive
N#C/C=C/C#N    inactive
CC(C)(C)C(O)C(Oc1ccc(-c2ccccc2)cc1)n1cncn1 (centres undefined)    12.2 µM (active)
Oc1ccc(C(=C(Cl)Cl)c2ccc(O)cc2)cc1    9.67 µM (active)
O=[N+]([O-])c1cc(Cl)ccc1Cl    inactive
CC(C)Oc1cccc(NC(=O)c2ccccc2C(F)(F)F)c1    2.17 µM (active)
CC(C)[C@H](C(=O)OC(C#N)c1cccc(Oc2ccccc2)c1)c1ccc(OC(F)F)cc1 (some centres undefined)    inactive
[Cl][Sn]([c]1ccccc1)([c]1ccccc1)[c]1ccccc1    0.206 µM (active)
C[As+](C)(C)CC(=O)[O-]    inactive
CN(CCCC(O)c1cccnc1)N=O (centres undefined)    inactive
Nc1ccc([N+](=O)[O-])cc1Cl    inactive
CC(=O)c1cc(C(C)(C)C)cc2c1CCC2(C)C    inactive
Clc1ccc(C(Cl)(Cl)Cl)c(Cl)c1    inactive
O=C(CBr)c1ccc(O)cc1    54.5 µM (active)
Clc1ccc(-c2ccc(Cl)c(Cl)c2Cl)c(Cl)c1Cl    inactive
COP(=O)(CCC(=O)NCO)OC    inactive
CC(C)(C)C(O)/C(=C\c1ccc(Cl)cc1Cl)n1cncn1 (centres undefined)    7.4 µM (active)
CCCCCCCCCCCCCCC(Br)C(=O)O (centres undefined)    inactive
CSCCCN=C=S    inactive
FC(F)(F)c1cccc(C2=CCN(CCc3ccc4ccccc4c3)CC2)c1    inactive
O=C(NC(=O)c1c(F)cccc1F)Nc1cc(Cl)c(OC(F)(F)C(F)F)c(Cl)c1    inactive
Cc1cc(C)cc(OP(=O)(Oc2cc(C)cc(C)c2)Oc2cc(C)cc(C)c2)c1    inactive
CC(C)(C)OO    inactive
Oc1ccccc1Br    inactive
CC(=[OH+])/C=C(/C)[O-].CC(=[OH+])/C=C(\C)[O-].CC(=[OH+])/C=C(\C)[O-].[Fe]    inactive
CCCCCCCCCBr    inactive
COP(N)(=S)OC    inactive
CCOC(=O)CC(=O)CCl    inactive
Nc1ccccc1C(=O)OC/C=C/c1ccccc1    inactive
CC(C)(C)c1cc([N+](=O)[O-])cc(C(C)(C)C)c1O    3.06 µM (active)
CCN(CC)c1c([N+](=O)[O-])cc(C(F)(F)F)c(N)c1[N+](=O)[O-]    9.69 µM (active)
O=[N+]([O-])c1cc([N+](=O)[O-])c2ccccc2c1    1.22 µM (active)

* * *

# ASSAY_DETAILS: qHTS assay to identify small molecule agonists of H2AX (AID 1224845)
# TEST_CONTEXT: CHO-K1 phospho-H2AX Ser139 HTRF, 3 h; series mostly up to 154 µM
Inconclusive results are not listed. Activity calls are given as the source filed them. The call rests on the fitted dose curve; in most records, active means well fitted activation curve with a large enough effect in the signal ratio in the repeat runs (not every such curve was filed as active); inconclusive means weak or mixed curves; inactive means flat fitted curve, though single readings scatter; the % refers to the signal ratio.
Possible outcomes: TRUE = active, FALSE = inactive

CC(=[OH+])/C=C(/C)[O-].CC(=[OH+])/C=C(\C)[O-].CC(=[OH+])/C=C(\C)[O-].[Al]    FALSE
CC(C)OC(=O)C(O)(c1ccc(Cl)cc1)c1ccc(Cl)cc1    TRUE
CC(=O)[O-].CC(=O)[O-].O.O.[Cd+2]    TRUE
CC1(C)[C@H](C(=O)O[C@H](C#N)c2cccc(Oc3ccccc3)c2)[C@@H]1/C=C(\Cl)C(F)(F)F    FALSE
CC1CCC(C(C)C)C(OC(=O)c2ccccc2N)C1 (stereo not given)    TRUE

* * *

# ASSAY_DETAILS: qHTS assay to identify small molecule antagonists of the estrogen receptor alpha (ER-alpha) signaling pathway using the BG1 cell line in the presence of 0.1 nM 17-beta-estradiol - cell viability counter screen (AID 1259241); note: nearly all actives have a fitted effect of over 40% in size
# TEST_CONTEXT: VM7Luc4E2 (BG1) viability, CellTiter-Fluor protease, 22 h, 0.1 nM estradiol agonist added; series mostly up to 92.4 µM
Results filed as inconclusive are left out. Calls of active or inactive are those of the source. Calls come from the whole dose curve; as a rule, active = well fitted cell-killing curve with a large enough effect in the repeat runs; inconclusive = weak or mixed curves, or effect the other way; inactive = flat fitted curve, though single readings scatter.
Outcome codes: active, inactive

ClC(Cl)=C(c1ccc(Cl)cc1)c1ccc(Cl)cc1    inactive
COc1cccc2c1C(=O)c1c(O)c3c(c(O)c1C2=O)C[C@@](O)(C(=O)CO)CC3OC1CC(N2CCOC(OC)C2)C(O)C(C)O1 (some centres not stated)    active
CCCCN(CCCC)C(=S)[S-].CCCCN(CCCC)C(=S)[S-].[Zn+2]    active
Nc1ccc(Sc2ccc(N)cc2)cc1    inactive
O=C(Cl)c1ccc(Cl)cc1    inactive
CC(Cl)CN(C)C (configuration not stated)    inactive
FC(Cl)(Cl)Cl    inactive
CC(=[OH+])/C=C(/C)[O-].CC(=[OH+])/C=C(\C)[O-].CC(=[OH+])/C=C(\C)[O-].[Al]    inactive
ClC1=C(Cl)C2(Cl)C3C(Cl)C(Cl)CC3C1(Cl)C2(Cl)Cl (configuration not stated)    inactive
CC(C)CCCCCCCOP(=O)(Oc1ccccc1)Oc1ccccc1    inactive
Oc1cc(Cl)c(Cl)c(Cl)c1    inactive
Cc1ccc(CCl)cc1    inactive
